B1: Alpha-lactalbumin, P00712 (parent)
chain: MMSFVSLLLVGILFHATQAEQLTKCEVFQKLKDLKDYGGVSLPEWVCTAFHTSGYDTQAIVQNNDSTEYGLFQINNKIWCKDDQNPHSRNICNISCDKFLDDDLTDDIVCAKKILDKVGINYWLAHKALCSEKLDQWLCEKL

- Variants of: B1
- measurementContext: Capra hircus; pH 2; 20 °C; Urea; CD; NaCl-HCl 100 mM; structure 1HFY; whole UniProt chain shown
observedProperty: denaturant midpoint (higher = more stable) (M)
One number for each entry, in M.

Consider the following illustrative entries.
T48I: 2.5
A49T: 1.9

Quick request: denaturant midpoint (higher = more stable) for each listed item, please.
1. T52I
2. A49I

Reply:
[2.6, 3]
